Where these numbers come from: the supplement of paper PMC10307832

Test system: LK-2
Method: relative viability (nuclei count vs DMSO), 5 days (fraction); higher = more cells survive
Measurement Context: first compound 20 µM
Lab note: cut-off is 0.2. Strictly less in relative viability is yes. Exactly 0.2 or more is no.

- Compound: "Cc1csc(=NC2CCCCC2)n1/N=C/c1ccc(O)c(O)c1O [MIM1] + Cc1cc(Nc2cc(N3CCN(C)CC3)nc(Sc3ccc(NC(=O)C4CC4)cc3)n2)n[nH]1 [Tozasertib] (partner 0.1 µM)"
  Label Class: "yes"
- Compound: "Cc1csc(=NC2CCCCC2)n1/N=C/c1ccc(O)c(O)c1O [MIM1] + Cc1nc(Nc2ncc(C(=O)Nc3c(C)cccc3Cl)s2)cc(N2CCN(CCO)CC2)n1 [Dasatinib] (partner 0.075 µM)"
  Label Class: "yes"
- Compound: "Cc1csc(=NC2CCCCC2)n1/N=C/c1ccc(O)c(O)c1O [MIM1] + C[C@@H](Oc1cc(-c2cnn(C3CCNCC3)c2)cnc1N)c1c(Cl)ccc(F)c1Cl [Crizotinib] (partner 1 µM)"
  Label Class: "no"

Query: # TODO verify relative viability < 0.2 strictly for this compound: Cc1csc(=NC2CCCCC2)n1/N=C/c1ccc(O)c(O)c1O [MIM1] + Nc1nc2[nH]cc(CCc3ccc(C(=O)N[C@@H](CCC(=O)O)C(=O)O)cc3)c2c(=O)[nH]1 [Pemetrexed] (partner 0.2 µM)
Result: no

Query: Below 0.2 on relative viability? Entry Cc1csc(=NC2CCCCC2)n1/N=C/c1ccc(O)c(O)c1O [MIM1] + COc1cc2c(Oc3ccc(NC(=O)C4(C(=O)Nc5ccc(F)cc5)CC4)cc3F)ccnc2cc1OCCCN1CCOCC1 [Foretinib] (partner 0.25 µM)
Result: no
